Data origin, for the record: ChEMBL document CHEMBL3862039

# STUDY SYSTEM: Androgen receptor (Homo sapiens, UniProt P10275, F877L)
# Sequence (P10275 whole entry F877L): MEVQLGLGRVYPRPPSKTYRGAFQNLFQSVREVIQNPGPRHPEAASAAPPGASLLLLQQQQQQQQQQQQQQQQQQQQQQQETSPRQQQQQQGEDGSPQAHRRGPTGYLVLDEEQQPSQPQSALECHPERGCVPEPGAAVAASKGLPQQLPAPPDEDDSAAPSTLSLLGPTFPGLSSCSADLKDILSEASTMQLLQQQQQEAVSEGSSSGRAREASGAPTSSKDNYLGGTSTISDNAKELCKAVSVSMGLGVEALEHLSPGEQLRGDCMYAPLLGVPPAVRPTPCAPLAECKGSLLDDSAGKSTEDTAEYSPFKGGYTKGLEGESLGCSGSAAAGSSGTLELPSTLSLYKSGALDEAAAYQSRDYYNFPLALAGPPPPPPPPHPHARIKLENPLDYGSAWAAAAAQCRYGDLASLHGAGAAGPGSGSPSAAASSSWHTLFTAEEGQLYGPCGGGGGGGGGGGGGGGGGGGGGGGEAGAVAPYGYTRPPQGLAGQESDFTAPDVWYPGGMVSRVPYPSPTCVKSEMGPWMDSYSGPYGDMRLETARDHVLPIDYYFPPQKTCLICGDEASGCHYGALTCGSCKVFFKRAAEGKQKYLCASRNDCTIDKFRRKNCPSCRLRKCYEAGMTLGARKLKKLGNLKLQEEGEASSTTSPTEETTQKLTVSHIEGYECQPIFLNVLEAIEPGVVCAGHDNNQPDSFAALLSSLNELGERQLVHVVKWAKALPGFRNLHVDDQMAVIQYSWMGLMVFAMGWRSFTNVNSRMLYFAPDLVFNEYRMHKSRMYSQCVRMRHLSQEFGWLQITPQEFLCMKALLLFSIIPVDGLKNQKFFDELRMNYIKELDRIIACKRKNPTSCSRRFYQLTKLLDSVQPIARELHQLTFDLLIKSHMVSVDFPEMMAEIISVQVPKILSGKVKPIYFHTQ
# PROTOCOL DETAILS: Antagonist activity at AR F876L mutant (unknown origin) expressed in human PC3 cells assessed as inhibition of DHT-induced receptor transactivation after 24 hrs by PSA-luciferase reporter gene assay
MEASURED ENDPOINT: IC50 (nM)
Give bare numbers, in nM.

Task: I would be grateful if you could share the reported IC50 for CC(C)c1ccc2c(c1O)CC[C@H]1C3=C(CC[C@]21C)C(=O)OC3 [TRIPTOPHENOLIDE] .
Result: 480

###

# STUDY SYSTEM: Androgen receptor (Rattus norvegicus, UniProt P15207)
# Sequence (P15207 whole entry): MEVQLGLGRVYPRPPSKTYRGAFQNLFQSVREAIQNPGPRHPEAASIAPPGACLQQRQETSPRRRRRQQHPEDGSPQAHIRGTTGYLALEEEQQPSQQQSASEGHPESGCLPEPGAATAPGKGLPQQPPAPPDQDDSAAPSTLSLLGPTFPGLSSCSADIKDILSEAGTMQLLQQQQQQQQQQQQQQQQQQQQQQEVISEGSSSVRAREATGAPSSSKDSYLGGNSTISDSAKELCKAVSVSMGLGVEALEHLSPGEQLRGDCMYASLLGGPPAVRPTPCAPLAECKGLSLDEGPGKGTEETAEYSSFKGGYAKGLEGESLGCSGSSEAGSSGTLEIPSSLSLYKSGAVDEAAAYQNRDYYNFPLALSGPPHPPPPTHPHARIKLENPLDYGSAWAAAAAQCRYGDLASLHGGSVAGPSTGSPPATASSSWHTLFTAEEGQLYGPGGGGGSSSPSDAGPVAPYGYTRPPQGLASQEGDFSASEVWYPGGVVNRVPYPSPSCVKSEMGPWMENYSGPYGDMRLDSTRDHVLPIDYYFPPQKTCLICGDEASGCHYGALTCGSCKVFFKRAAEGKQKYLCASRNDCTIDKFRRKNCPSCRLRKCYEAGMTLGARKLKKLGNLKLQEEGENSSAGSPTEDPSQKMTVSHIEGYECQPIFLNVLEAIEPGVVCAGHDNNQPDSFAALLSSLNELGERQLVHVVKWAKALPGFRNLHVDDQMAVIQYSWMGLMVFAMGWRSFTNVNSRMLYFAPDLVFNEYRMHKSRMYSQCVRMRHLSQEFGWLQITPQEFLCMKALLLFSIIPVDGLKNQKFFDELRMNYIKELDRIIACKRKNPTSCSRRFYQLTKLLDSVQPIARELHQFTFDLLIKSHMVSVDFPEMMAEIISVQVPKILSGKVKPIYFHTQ
MEASURED ENDPOINT: pIC50
Answers are plain numbers, as −log10 of the molar value.

Task: GET /values?readout=pIC50&system=Androgen receptor (Rattus norvegicus, UniProt P15207)&item= CC(C)c1ccc2c(c1O)CC[C@H]1C3=C(CC[C@]21C)C(=O)OC3 [TRIPTOPHENOLIDE]
Result: 6.33
